# System: KM12 colon
# ASSAY_OVERVIEW: NCI tumour cell line growth inhibition, 48 h
METRIC_NAME: TGI

Some solved entries appear below for comparison.
>>> test_value("CCOC(=O)c1cc(/C=C/C(C)=C/C(=O)OC)oc1C")
"> 100 µM"
>>> test_value("C=C1C(OC2O[C@@H]3O[C@@]4(C)CC[C@H]5[C@H](C)CC[C@@H](C2=C)[C@@]35O4)O[C@@H]2O[C@@]3(C)CC[C@H]4[C@H](C)CC[C@@H]1[C@@]24O3 (some centres not stated)")
"> 50 µM"
>>> test_value("Cc1ccc2nc(-c3ccc(N(C)C)c(Br)c3)cn2c1")
"> 100 µM"
>>> test_value("O=C1c2cc(Cl)ccc2-c2c1c1ccc([N+](=O)[O-])cc1c(=O)n2CCCBr")
"> 100 µM"
>>> test_value("N#C/C(=C/n1c(=S)[nH]c2ccc([N+](=O)[O-])cc21)C(N)=O")
"> 100 µM"

Entry CCOC(=O)C1(C#N)C(c2ccccc2)CC(O)(c2ccc(Cl)cc2)C(C(=O)c2ccc(Cl)cc2)C1c1ccccc1 (configuration not stated) , tested on KM12 colon, has a reported TGI of > 100 µM

Tested on KM12 colon: O=C1NC(=S)S/C1=C(/C=C(\CC(=O)c1ccccc1)c1ccc(Cl)cc1)c1ccccc1 . Observed TGI: > 100 µM
